In this section, each of the compounds is paired with its reported Percent Effect.
# target.entity: Chromo domain-containing protein 1 (Saccharomyces cerevisiae (strain ATCC 204508 / S288c) (Baker's yeast)) (UniProt P32657)
# Sequence (P32657 whole entry, the tested form may be a part): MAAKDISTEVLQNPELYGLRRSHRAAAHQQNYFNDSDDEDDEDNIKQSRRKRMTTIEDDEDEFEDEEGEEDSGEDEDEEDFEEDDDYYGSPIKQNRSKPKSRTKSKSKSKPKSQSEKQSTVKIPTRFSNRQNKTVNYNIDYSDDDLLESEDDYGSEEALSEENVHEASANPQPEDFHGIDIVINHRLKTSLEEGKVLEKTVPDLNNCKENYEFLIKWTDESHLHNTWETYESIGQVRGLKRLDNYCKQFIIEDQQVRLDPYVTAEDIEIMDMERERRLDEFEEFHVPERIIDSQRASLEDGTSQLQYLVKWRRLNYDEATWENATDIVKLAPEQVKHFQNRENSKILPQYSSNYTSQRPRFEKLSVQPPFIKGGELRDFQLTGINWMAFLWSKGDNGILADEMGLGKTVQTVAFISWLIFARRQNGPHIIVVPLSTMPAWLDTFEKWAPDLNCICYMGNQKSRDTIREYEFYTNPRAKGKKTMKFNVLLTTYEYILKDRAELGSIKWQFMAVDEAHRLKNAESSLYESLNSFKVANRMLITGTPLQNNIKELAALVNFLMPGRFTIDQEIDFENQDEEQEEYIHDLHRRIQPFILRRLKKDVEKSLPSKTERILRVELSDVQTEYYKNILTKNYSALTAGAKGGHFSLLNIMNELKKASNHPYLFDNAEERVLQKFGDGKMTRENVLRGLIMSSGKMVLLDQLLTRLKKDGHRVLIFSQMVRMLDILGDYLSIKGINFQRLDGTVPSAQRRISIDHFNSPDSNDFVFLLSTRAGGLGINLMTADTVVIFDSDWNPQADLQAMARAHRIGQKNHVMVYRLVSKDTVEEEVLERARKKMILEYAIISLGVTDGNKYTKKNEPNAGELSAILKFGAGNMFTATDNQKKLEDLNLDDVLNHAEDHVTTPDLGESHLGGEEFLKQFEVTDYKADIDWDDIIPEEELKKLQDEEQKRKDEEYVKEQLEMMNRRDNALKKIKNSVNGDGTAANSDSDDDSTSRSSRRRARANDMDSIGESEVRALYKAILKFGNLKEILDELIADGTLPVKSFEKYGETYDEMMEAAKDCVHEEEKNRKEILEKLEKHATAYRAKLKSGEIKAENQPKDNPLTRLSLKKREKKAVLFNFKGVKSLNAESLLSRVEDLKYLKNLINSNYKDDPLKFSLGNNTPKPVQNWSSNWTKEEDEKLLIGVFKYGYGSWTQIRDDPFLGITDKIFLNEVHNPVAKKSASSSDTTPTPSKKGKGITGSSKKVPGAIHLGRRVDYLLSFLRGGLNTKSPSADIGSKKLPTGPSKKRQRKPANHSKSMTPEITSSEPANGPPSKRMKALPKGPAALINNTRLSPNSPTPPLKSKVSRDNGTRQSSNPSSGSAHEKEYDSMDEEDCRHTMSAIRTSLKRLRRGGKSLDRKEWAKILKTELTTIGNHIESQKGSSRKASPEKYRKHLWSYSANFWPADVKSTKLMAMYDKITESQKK
# assay.summary: ScCHD-1 Enzyme Inhibition Assay
# Format: functional
# Design: scale not given: in the data most compounds retested in dose-response had high values
# study.conditions: 30 µM

>  <compound>
CCOc1ccccc1-c1noc(CN2CCCC(O)C2)n1 (configuration not stated)

>  <units>
%

>  <Percent Effect>
-13.3

$$$$
>  <compound>
CN(C)C(=O)CS(=O)(=O)Cc1cc(Cl)c2c(c1)OCCCO2

>  <units>
%

>  <Percent Effect>
-7.42

$$$$
>  <compound>
Cc1cc(C)n(-c2cc(N3CCN(C(=O)C(C)(C)C)CC3)nc(C)n2)n1

>  <units>
%

>  <Percent Effect>
-5.38

$$$$
>  <compound>
NC(=O)NCC(=O)N1C[C@H]2CC[C@@H]1CN(C1Cc3ccccc3C1)C2

>  <units>
%

>  <Percent Effect>
-4.63

$$$$
>  <compound>
COc1ccc2c(O)c(NC(=O)NCC3CC3)cnc2c1

>  <units>
%

>  <Percent Effect>
-11.6

$$$$
>  <compound>
CCN1CCN(CC(O)c2ccc(F)cc2)CC1 (configuration not stated)

>  <units>
%

>  <Percent Effect>
-6.3

$$$$
>  <compound>
COCCCNC(=O)CN(C)C(=O)c1cc(C)ccc1O

>  <units>
%

>  <Percent Effect>
-7.89

$$$$
>  <compound>
CN(Cc1cnccn1)C(=O)c1ccnc(OC2CCC2)c1

>  <units>
%

>  <Percent Effect>
8.01

$$$$
>  <compound>
NC(=O)CC1CCN(C(=O)NCc2ccccc2-n2cccn2)CC1

>  <units>
%

>  <Percent Effect>
-10.3

$$$$
>  <compound>
Cc1cc(C(=O)O)cc(S(=O)(=O)Nc2ccc3c(c2)OCO3)c1C

>  <units>
%

>  <Percent Effect>
-3.33

$$$$
>  <compound>
CN(C)CC(=O)N1CCC2(CCN(Cc3ccccn3)C2=O)C1 (configuration not stated)

>  <units>
%

>  <Percent Effect>
-2.1

$$$$
>  <compound>
CCCNC(=O)NCc1cccnc1OC

>  <units>
%

>  <Percent Effect>
-6.38

$$$$
